- Experimental target: h5-HT2C (Homo sapiens, UniProt P28335)
- Sequence (P28335 33-458): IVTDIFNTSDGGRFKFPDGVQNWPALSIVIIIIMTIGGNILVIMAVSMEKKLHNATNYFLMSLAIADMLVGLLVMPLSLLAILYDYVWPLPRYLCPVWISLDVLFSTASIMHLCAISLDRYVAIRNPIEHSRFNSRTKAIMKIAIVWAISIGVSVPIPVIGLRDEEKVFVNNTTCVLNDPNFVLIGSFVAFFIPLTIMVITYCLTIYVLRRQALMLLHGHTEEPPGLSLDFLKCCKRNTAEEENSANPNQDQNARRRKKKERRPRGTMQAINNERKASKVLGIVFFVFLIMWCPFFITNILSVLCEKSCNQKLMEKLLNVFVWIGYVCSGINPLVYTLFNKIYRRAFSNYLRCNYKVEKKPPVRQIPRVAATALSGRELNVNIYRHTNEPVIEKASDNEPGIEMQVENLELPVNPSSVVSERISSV
- Procedure summary: cell-based
Measurement label: pEC50
Please keep in mind that pEC50 is minus log10 of the molar concentration; only the number is needed.

Check out these entries, answers already filled in.
Would you mind telling me what pEC50 value was observed for COc1ccc(OC)c(CC(C)N)c1.Cl (stereo not shown) [2,5-DMA, 2,5-Dimethoxyamphetamine hydrochloride] ?
6.91

Same question, CCCc1cc(OC)c(CC(C)N)cc1OC.Cl (stereo not shown) this time
9.03

Same question, CCCCCc1cc(OC)c(CC(C)N)cc1OC (stereo not shown) this time
9.05

Now for a further compound.
Would you mind telling me what pEC50 value was observed for CCCCc1cc(OC)c(CC(C)N)cc1OC (stereo not shown) ?
9.89

----------
For reference, Ki measured on hα1A (Homo sapiens, UniProt P35348):
Reply numerically in µM, unit not repeated.

Would you mind telling me what Ki value was observed for CCCc1cc(OC)c(CC(C)N)cc1OC.Cl (stereo not drawn) ?
6.99

Now for a further compound.
Would you mind telling me what Ki value was observed for COc1cc(CC(C)N)c(OC)cc1C (stereo not drawn) ?
7.39

----------
Quick reference for pKi among some compounds
- Experimental target: hSERT (Homo sapiens)
- Construct: expressed in transfected cells; host or cells: HEK 293 cells (membrane preparation)
- Sequence (P31645 whole entry): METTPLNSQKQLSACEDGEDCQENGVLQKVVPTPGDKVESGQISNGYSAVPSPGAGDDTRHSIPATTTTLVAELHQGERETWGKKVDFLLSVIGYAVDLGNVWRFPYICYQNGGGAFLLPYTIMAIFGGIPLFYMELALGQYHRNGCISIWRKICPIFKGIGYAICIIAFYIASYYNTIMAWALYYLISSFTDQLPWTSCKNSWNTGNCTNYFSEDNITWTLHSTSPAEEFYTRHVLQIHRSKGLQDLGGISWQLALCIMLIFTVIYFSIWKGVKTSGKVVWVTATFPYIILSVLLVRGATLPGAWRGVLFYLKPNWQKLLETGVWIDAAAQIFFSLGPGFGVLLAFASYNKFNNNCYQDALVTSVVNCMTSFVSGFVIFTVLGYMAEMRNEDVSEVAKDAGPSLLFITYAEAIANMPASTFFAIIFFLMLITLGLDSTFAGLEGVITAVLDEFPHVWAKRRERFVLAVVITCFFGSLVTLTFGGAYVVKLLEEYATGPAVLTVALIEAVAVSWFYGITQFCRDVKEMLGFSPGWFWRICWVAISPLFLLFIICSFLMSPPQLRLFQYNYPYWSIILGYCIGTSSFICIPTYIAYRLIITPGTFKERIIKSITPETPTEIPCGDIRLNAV
- Procedure summary: Radioligand binding, hSERT ([3H]citalopram)
- Condition parameters: hSERT Ki, mean (95% CI); HEK 293 membranes
pKi: −log10 of the molar value.

Check out these entries, answers already filled in.
Would you mind telling me what pKi value was observed for CCCc1cc(OC)c(CC(C)N)cc1OC.Cl (stereo not drawn) [DOPR] ?
< 5.15

Same question, COc1ccc(OC)c(CC(C)N)c1.Cl (stereo not drawn) [2,5-DMA, 2,5-Dimethoxyamphetamine hydrochloride] this time
< 5.15

Same question, CCc1cc(OC)c(CC(C)N)cc1OC (stereo not drawn) [DOET, 4-ethyl-2,5-dimethoxyamphetamine] this time
< 5.15

Same question, CCCCc1cc(OC)c(CC(C)N)cc1OC (stereo not drawn) [DOBU, 4-butyl-2,5-dimethoxyamphetamine] this time
< 5.15

Same question, CCCCCc1cc(OC)c(CC(C)N)cc1OC (stereo not drawn) [DOAM, 4-amyl-2,5-dimethoxyamphetamine] this time
5.33

Now for a further compound.
Would you mind telling me what pKi value was observed for COc1cc(CC(C)N)c(OC)cc1C (stereo not drawn) [DOM, 4-methyl-2,5-dimethoxyamphetamine] ?
< 5.15
